assay: self-splicing fitness, log relative to wild type (ln ratio); higher = more splicing; Tetrahymena group I intron in knt gene, E. coli kanamycin selection, DiMSum; sequences stand for … in CUCUCU…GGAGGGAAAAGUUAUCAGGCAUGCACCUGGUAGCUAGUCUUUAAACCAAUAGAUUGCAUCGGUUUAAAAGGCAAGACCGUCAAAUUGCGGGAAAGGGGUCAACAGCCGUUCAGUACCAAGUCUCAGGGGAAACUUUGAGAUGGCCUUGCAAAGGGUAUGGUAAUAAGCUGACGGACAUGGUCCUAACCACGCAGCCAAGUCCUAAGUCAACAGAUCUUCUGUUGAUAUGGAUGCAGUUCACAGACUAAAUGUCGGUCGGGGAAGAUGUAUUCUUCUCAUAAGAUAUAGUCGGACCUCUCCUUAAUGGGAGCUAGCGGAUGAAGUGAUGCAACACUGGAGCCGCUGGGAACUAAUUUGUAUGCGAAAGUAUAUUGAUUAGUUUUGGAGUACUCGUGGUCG; conditions: 30 °C;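 further: selection with 25 µg/mL kanamycin versus none on LB agar overnight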
TEST_READOUT: self-splicing fitness (ln)
# print the numeric value only

Return the recorded self-splicing fitness (ln) value; entry: `UCCGAGCAAUAUUACGACUG` -2.56

New cases:
Return the recorded self-splicing fitness (ln) value; entry: `AUAUAGCAAUAUUACGUCUG` -2.35

Return the recorded self-splicing fitness (ln) value; entry: `CCUGAGCAAUAUUACGAAAA` -3.64

Return the recorded self-splicing fitness (ln) value; entry: `AUUCAGCAAUAUUACGGAAC` -2.54

Return the recorded self-splicing fitness (ln) value; entry: `CCAAAGCAAUAUUACGGGAA` -3.01

Return the recorded self-splicing fitness (ln) value; entry: `CGGGAGCAAUAUUACGGCUA` -2.44

Return the recorded self-splicing fitness (ln) value; entry: `GUCUAGCAAUAUUACGCCUA` -0.955

Return the recorded self-splicing fitness (ln) value; entry: `GCUCAGCAAUAUUACGAGCG` -2.81

Return the recorded self-splicing fitness (ln) value; entry: `CCUAAGCAAUAUUACGUGCU` -3

Return the recorded self-splicing fitness (ln) value; entry: `ACAUAGCAAUAUUACGGUGU` -3.8

Return the recorded self-splicing fitness (ln) value; entry: `CCGAAGCAAUAUUACGCCUA` -2.94

Return the recorded self-splicing fitness (ln) value; entry: `CGUGAGCAAUAUUACGAUAU` -2.77

Return the recorded self-splicing fitness (ln) value; entry: `ACUUAGCAAUAUUACGGCAG` -1.6

Return the recorded self-splicing fitness (ln) value; entry: `CAAUAGCAAUAUUACGAGAU` -2.72

Return the recorded self-splicing fitness (ln) value; entry: `AAUAAGCAAUAUUACGCACU` 0.285

Return the recorded self-splicing fitness (ln) value; entry: `AAAAAGCAAUAUUACGACUC` 0.0755

Return the recorded self-splicing fitness (ln) value; entry: `GUGCAGCAAUAUUACGUGAC` -1.86

Return the recorded self-splicing fitness (ln) value; entry: `GCCUAGCAAUAUUACGCUAC` -2.7

Return the recorded self-splicing fitness (ln) value; entry: `UACAAGCAAUAUUACGUAAG` -3.96

###

assay: self-splicing fitness, log relative to wild type (ln ratio); higher = more splicing; Tetrahymena group I intron in knt gene, E. coli kanamycin selection, DiMSum; sequences stand for … in CUCUCU…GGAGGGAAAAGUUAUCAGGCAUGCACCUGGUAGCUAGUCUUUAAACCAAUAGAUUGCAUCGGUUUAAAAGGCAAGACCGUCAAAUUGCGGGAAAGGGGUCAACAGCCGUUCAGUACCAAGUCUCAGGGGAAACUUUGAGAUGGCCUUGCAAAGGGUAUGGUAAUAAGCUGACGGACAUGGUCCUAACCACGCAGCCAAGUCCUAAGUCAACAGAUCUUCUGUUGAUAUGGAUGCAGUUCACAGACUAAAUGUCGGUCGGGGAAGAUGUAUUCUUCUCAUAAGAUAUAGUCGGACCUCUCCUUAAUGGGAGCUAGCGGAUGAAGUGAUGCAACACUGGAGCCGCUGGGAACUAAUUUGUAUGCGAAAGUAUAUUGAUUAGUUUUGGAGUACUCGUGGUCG; settings: 30 °C
Rule: self-splicing fitness (ln) under -0.7 gives not satisfied, otherwise satisfied.

Quick check: does `GGCUAGCAAUAUUACGACUU` have self-splicing fitness (ln) greater than or equal to -0.7? satisfied

Quick check: does `GAUAAGCAAUAUUACGACAG` have self-splicing fitness (ln) greater than or equal to -0.7? not satisfied

Quick check: does `GGACAGCAAUAUUACGACGG` have self-splicing fitness (ln) greater than or equal to -0.7? not satisfied

Quick check: does `UAGAAGCAAUAUUACGAGGG` have self-splicing fitness (ln) greater than or equal to -0.7? not satisfied

New cases:
Quick check: does `GGGAAGCAAUAUUACGAUAU` have self-splicing fitness (ln) greater than or equal to -0.7? not satisfied

Quick check: does `CUCUAGCAAUAUUACGAGGU` have self-splicing fitness (ln) greater than or equal to -0.7? not satisfied

###

experiment: self-splicing fitness, log relative to wild type (ln ratio); higher = more splicing; Tetrahymena group I intron in knt gene, E. coli kanamycin selection, DiMSum; sequences stand for … in CUCUCU…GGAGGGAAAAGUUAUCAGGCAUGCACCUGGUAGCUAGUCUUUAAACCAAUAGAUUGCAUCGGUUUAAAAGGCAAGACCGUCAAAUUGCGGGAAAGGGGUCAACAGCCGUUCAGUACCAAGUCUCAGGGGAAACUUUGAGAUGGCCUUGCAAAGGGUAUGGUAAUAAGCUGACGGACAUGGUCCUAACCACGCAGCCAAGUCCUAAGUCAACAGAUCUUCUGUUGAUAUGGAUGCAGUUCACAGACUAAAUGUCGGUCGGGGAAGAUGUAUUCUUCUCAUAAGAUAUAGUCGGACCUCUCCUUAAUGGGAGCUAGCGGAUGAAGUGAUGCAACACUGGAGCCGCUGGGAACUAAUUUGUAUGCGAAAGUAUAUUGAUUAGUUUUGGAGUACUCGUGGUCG; conditions: 30 °C
Rule: self-splicing fitness (ln) under -2 gives NOT MET, otherwise MET.

Quick check: does `AGGCAGCAAUAUUACGUAAG` have self-splicing fitness (ln) greater than or equal to -2? MET

Quick check: does `UACGAGCAAUAUUACGUUAU` have self-splicing fitness (ln) greater than or equal to -2? NOT MET

Quick check: does `GGUCAGCAAUAUUACGGCUA` have self-splicing fitness (ln) greater than or equal to -2? MET

Quick check: does `GCAGAGCAAUAUUACGUACG` have self-splicing fitness (ln) greater than or equal to -2? NOT MET

###

test: self-splicing fitness, log relative to wild type (ln ratio); higher = more splicing; Tetrahymena group I intron in knt gene, E. coli kanamycin selection, DiMSum; sequences stand for … in CUCUCU…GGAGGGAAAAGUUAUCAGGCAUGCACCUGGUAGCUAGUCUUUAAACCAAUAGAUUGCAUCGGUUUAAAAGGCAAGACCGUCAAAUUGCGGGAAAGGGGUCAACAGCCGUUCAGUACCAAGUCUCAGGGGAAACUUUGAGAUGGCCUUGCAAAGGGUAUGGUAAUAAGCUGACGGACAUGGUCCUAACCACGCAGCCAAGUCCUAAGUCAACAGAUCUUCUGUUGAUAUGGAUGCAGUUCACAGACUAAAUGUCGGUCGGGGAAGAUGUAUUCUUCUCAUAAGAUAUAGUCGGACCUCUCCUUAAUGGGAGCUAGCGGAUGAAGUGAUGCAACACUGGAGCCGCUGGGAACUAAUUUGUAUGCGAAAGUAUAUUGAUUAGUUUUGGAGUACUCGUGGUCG; conditions: 37 °C
Rule: self-splicing fitness (ln) under -0.05 gives label 0, otherwise label 1.

Quick check: does `UCGUAGCAAUAUUACGGUCU` have self-splicing fitness (ln) greater than or equal to -0.05? label 0

Quick check: does `AGCCAGCAAUAUUACGAGGC` have self-splicing fitness (ln) greater than or equal to -0.05? label 0

Quick check: does `GUAAAGCAAUAUUACGCCUG` have self-splicing fitness (ln) greater than or equal to -0.05? label 1

Quick check: does `ACCCAGCAAUAUUACGCGCC` have self-splicing fitness (ln) greater than or equal to -0.05? label 1

###

experiment: self-splicing fitness, log relative to wild type (ln ratio); higher = more splicing; Tetrahymena group I intron in knt gene, E. coli kanamycin selection, DiMSum; sequences stand for … in CUCUCU…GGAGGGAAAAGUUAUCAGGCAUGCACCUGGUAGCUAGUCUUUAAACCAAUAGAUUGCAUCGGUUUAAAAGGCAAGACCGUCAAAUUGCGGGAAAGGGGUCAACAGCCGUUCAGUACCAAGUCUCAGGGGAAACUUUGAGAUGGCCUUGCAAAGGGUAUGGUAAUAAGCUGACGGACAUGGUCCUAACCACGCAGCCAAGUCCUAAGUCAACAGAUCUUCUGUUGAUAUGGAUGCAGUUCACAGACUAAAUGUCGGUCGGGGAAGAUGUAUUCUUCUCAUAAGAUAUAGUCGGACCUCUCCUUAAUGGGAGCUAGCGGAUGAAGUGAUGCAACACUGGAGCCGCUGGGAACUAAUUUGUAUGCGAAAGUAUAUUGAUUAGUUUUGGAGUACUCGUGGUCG; conditions: 37 °C
TEST_READOUT: self-splicing fitness (ln)
# print the numeric value only

Return the recorded self-splicing fitness (ln) value; entry: `GAAGAGCAAUAUUACGUCGC` 0.595

New cases:
Return the recorded self-splicing fitness (ln) value; entry: `AACCAGCAAUAUUACGGAGU` -0.881

Return the recorded self-splicing fitness (ln) value; entry: `CUGCAGCAAUAUUACGCUAC` -2.17

Return the recorded self-splicing fitness (ln) value; entry: `UCUAAGCAAUAUUACGAUGU` -0.355
